Test system: A549
assay-name: Antiproliferative activity against human A549 cells assessed as inhibition of cell viability incubated for 24 hrs by MTT assay
Type: functional, cell-based
test-context: A549, 24 h
test-readout: IC50

* O=C(Nc1nc2ccc(-c3cccc(CO)c3)cc2s1)c1ccccc1Br | 97.5 µM
* Cc1cc(C)c(C(=O)Nc2nc3ccc(-c4cccc(CO)c4)cc3s2)o1 | 95 µM
* NC(=O)c1cccc(-c2ccc3sc(NC(=O)c4ccc(F)cc4C(F)(F)F)nc3c2)c1 | 98.3 µM
* O=C1OC(O)C(c2cc3ccccc3s2)=C1Br (stereo not given) | 98.5 µM
* O=C(Nc1nc2ccc(-c3cccc(CO)c3)cc2s1)c1ccc(F)cc1Cl | 98.2 µM

----------
measured-target: Prostaglandin E synthase (Homo sapiens) (UniProt O14684)
assay-name: Inhibition of mPGES1 in human A549 cells assessed as reduction in IL-1beta induced PGE2 release incubated for 24 hrs by ELISA
Type: cell-based
test-readout: inhibition

• Cc1cc(C)c(C(=O)Nc2nc3ccc(-c4cccc(CO)c4)cc3s2)o1 = Dose-dependent effect
• O=C(Nc1nc2ccc(-c3cccc(CO)c3)cc2s1)c1ccc(F)cc1Cl = Dose-dependent effect
• NC(=O)c1cccc(-c2ccc3sc(NC(=O)c4ccc(F)cc4C(F)(F)F)nc3c2)c1 = Dose-dependent effect
• O=C(Nc1nc2ccc(-c3cccc(CO)c3)cc2s1)c1ccccc1Br = Dose-dependent effect

----------
measured-target: Prostaglandin E synthase (Homo sapiens)
Sequence (O14684 whole entry): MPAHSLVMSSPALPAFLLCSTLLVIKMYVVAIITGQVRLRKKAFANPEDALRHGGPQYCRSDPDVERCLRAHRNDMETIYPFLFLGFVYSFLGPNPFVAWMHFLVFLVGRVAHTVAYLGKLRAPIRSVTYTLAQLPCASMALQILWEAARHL
assay-name: Inhibition of mPGES1 in human A549 cells assessed as reduction in IL-1beta induced PGE2 release using PGH2 as substrate preincubated for 15 mins followed by substrate addition and measured after 1 min by RP-UV-HPLC analysis
Format: cell-based
pIC50: −log10 of the molar value.
test-readout: pIC50

* Cc1cc(C)c(C(=O)Nc2nc3ccc(-c4cccc(CO)c4)cc3s2)o1 | 5.59
* O=C(Nc1nc2ccc(-c3cccc(CO)c3)cc2s1)c1ccc(F)cc1Cl | 5.85
* NC(=O)c1cccc(-c2ccc3sc(NC(=O)c4ccc(F)cc4C(F)(F)F)nc3c2)c1 | 5.77
* O=C(Nc1nc2ccc(-c3cccc(CO)c3)cc2s1)c1ccccc1Br | 6.15
